In this section, each of the compounds is paired with its reported Activity.
System: Mus musculus
TEST SUMMARY: Analgesic activity in Webster mouse assessed as normal reaction time at 5 mg/kg, sc after 10-120 mins by hot plate assay relative to valdecoxib
Format: functional
SETTINGS: route subcutaneous
ASSAY ENDPOINT: Activity (%)

compound="CC1=Cc2c(c(=O)[nH]n2-c2ccccc2)C(c2ccccc2)C1 (centres undefined)" units_of_measure=% value_reported=60
compound="CC1=CC(c2ccccc2)N=C(NN2C(=O)c3ccc4c5c(ccc(c35)C2=O)C(=O)N(NC2=NC(c3ccccc3)C=C(C)N2)C4=O)N1 (centres undefined)" units_of_measure=% value_reported=60
compound="CC1=CC(c2ccccc2)N=C(NN2C(=O)c3cccc4cccc(c34)C2=O)N1 (centres undefined)" units_of_measure=% value_reported=60
compound="CCOC(=O)C1C(=O)C=C(C)CC1c1ccccc1 (centres undefined)" units_of_measure=% value_reported=60
compound="CC1=CC2=NC(=S)NC(=O)C2C(c2ccccc2)C1 (centres undefined)" units_of_measure=% value_reported=130
compound="CC1=CC(c2ccccc2)NC(=S)N1 (centres undefined)" units_of_measure=% value_reported=130
compound="CC1=CC(c2ccccc2)NC(=S)N1CN1CCOCC1 (centres undefined)" units_of_measure=% value_reported=60
compound="CC1=CC(c2ccccc2)Nc2ncnn21 (centres undefined)" units_of_measure=% value_reported=60
compound="CC1=Cc2[nH]c(=S)nc(C)c2C(c2ccccc2)C1 (centres undefined)" units_of_measure=% value_reported=60

----------
TEST SUMMARY: Acute toxicity in rat
Type: organism-based
SETTINGS: in vivo
ASSAY ENDPOINT: LD50

compound="CC1=CC2=NC(=S)NC(=O)C2C(c2ccccc2)C1 (configuration not stated)" value_reported="1.88 mg/kg"
compound="CC1=CC(c2ccccc2)NC(NN)N1 (configuration not stated)" value_reported="1.88 mg/kg"
compound="CC1=CC(c2ccccc2)NC(=S)N1CN1CCOCC1 (configuration not stated)" value_reported="1.69 mg/kg"
compound="CC1=Cc2c(c(C)nn2-c2ccccc2)C(c2ccccc2)C1 (configuration not stated)" value_reported="1.92 mg/kg"
compound="CC1=CC(c2ccccc2)NC(=S)N1 (configuration not stated)" value_reported="1.8 mg/kg"
compound="CC(=O)C1C(=O)C=C(C)CC1c1ccccc1 (configuration not stated)" value_reported="1.72 mg/kg"
compound=C[C@]12C=CC(=O)C=C1CC[C@@H]1[C@@H]2[C@@H](O)C[C@@]2(C)[C@H]1CC[C@]2(O)C(=O)CO value_reported="1.62 mg/kg"
compound="CC1=CC(c2ccccc2)N=C(Nn2c(=O)c3cc4c(=O)n(NC5=NC(c6ccccc6)C=C(C)N5)c(=O)c4cc3c2=O)N1 (configuration not stated)" value_reported="1.68 mg/kg"
compound="CCOC(=O)C1C(=O)C=C(C)CC1c1ccccc1 (configuration not stated)" value_reported="1.74 mg/kg"
compound="CC1=CC(c2ccccc2)N=C(NN2C(=O)c3cccc4cccc(c34)C2=O)N1 (configuration not stated)" value_reported="1.85 mg/kg"
compound="CC1=CC(c2ccccc2)Nc2ncnn21 (configuration not stated)" value_reported="1.75 mg/kg"
compound="CC1=CC(c2ccccc2)N=C(n2cc(C)c(C)n2)N1 (configuration not stated)" value_reported="1.79 mg/kg"
compound="CC1=Cc2[nH]c(=S)nc(C)c2C(c2ccccc2)C1 (configuration not stated)" value_reported="1.87 mg/kg"
compound="CC1=CC(c2ccccc2)N=C(NN2C(=O)c3ccc4c5c(ccc(c35)C2=O)C(=O)N(NC2=NC(c3ccccc3)C=C(C)N2)C4=O)N1 (configuration not stated)" value_reported="1.78 mg/kg"
compound="CC1=Cc2c(c(=O)[nH]n2-c2ccccc2)C(c2ccccc2)C1 (configuration not stated)" value_reported="1.86 mg/kg"
compound="CC1=CC(c2ccccc2)Nc2n[nH]c(=S)n21 (configuration not stated)" value_reported="1.8 mg/kg"
compound="CC1=CC(c2ccccc2)Nc2nnc(C)n21 (configuration not stated)" value_reported="1.97 mg/kg"
